# System under test: E3 ubiquitin-protein ligase XIAP (Homo sapiens) (UniProt P98170)
# Sequence (P98170 whole entry, looked up): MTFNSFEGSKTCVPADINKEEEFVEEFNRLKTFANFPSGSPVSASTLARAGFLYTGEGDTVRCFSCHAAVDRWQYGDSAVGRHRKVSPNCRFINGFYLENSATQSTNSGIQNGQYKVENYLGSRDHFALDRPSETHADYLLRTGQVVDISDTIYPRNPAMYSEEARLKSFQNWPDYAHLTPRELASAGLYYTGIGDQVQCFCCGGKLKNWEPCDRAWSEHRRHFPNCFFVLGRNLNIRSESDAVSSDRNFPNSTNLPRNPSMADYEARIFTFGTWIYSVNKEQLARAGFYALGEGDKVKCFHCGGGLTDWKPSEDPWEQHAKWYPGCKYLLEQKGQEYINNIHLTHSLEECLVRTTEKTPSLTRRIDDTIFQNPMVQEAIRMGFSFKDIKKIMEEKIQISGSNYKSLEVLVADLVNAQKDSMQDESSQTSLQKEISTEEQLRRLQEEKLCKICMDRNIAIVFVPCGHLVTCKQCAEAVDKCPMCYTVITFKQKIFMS
# Protocol notes: small molecules binding XIAP protein – biophysical, small-molecule microarray, fluorescence 635 nm, primary screen (AID 1181)
# Condition details: higher = more signal
So basically: composite z-score at 0.02 or higher? That is t. Lower than 0.02? That is f.

Examples from the recorded data:
>>> group("CC=CC(O)C1C=CC2C(=O)N(C)C(=O)C2N1N(c1ccccc1)c1ccccc1 (stereo not drawn)")
"f"
>>> group("O=C(O)[C@@]1(CCS(=O)(=O)c2ccccc2)N=C(c2ccc(OCCCO)cc2)O[C@H]1c1ccccc1")
"t"

**Query** Decide: composite z-score of CN(C)C(=O)[C@]1(Cc2ccccc2)N=C(c2ccc(OCCCO)cc2)O[C@@H]1c1ccccc1N=[N+]=[N-] >= 0.02?
**Result** t

**Query** Decide: composite z-score of C=C[C@H](C)[C@@H](OC(=O)Nc1ccc(SC)cc1)c1ccc(O)c2ccccc12 >= 0.02?
**Result** f

**Query** Decide: composite z-score of CC(c1ccccc1)C(O)C1C=CC2C(=O)N(c3ccccc3)C(=O)C2N1Nc1ccccc1 (stereo not drawn) >= 0.02?
**Result** t

**Query** Decide: composite z-score of CC(c1ccccc1)C(O)C1C=CC2C(=O)N(C)C(=O)C2N1NC(=O)OC(C)(C)C (stereo not drawn) >= 0.02?
**Result** t

**Query** Decide: composite z-score of [N-]=[N+]=NCc1ccccc1[C@@H]1OC(c2ccc(OCCCO)cc2)=N[C@]1(CCS(=O)(=O)c1ccccc1)C(=O)N1CCCCC1 >= 0.02?
**Result** f

**Query** Decide: composite z-score of CCOc1cc(C(O)C2C=CC3C(=O)N(c4ccccc4)C(=O)C3N2Nc2ccc(C(C)C)cc2)ccc1O (stereo not drawn) >= 0.02?
**Result** t

// provenance: PubChem BioAssay
